Tested on: HCT-15
assayRemarks: Growth inhibition of human HCT15 cells at 0.1 uM after 48 hrs by SRB assay; values are per cent of control
statedConditions: HCT-15, 48 h

{"compoundString": "CCCCCCCCCCCCCCCCS(=O)(=O)N(C)CC[N+](C)(CC)CC", "growth, % of control at 0.1 µM, %": 98.5}
{"compoundString": "CCCCCCCCCCCCCCS(=O)(=O)N(C)CC[N+](C)(CC)CC", "growth, % of control at 0.1 µM, %": 95}
{"compoundString": "CCCCCCCCCCCCCCCCS(=O)(=O)NCCC[N+](C)(C)C", "growth, % of control at 0.1 µM, %": 96}
{"compoundString": "CCCCCCCCCCCCCCCCS(=O)(=O)NCCC[N+](C)(C)CC", "growth, % of control at 0.1 µM, %": 90}
{"compoundString": "CCCCCCCCCCCCCCCCS(=O)(=O)N(C)CCC[N+](C)(C)CC", "growth, % of control at 0.1 µM, %": 85.4}
{"compoundString": "CCCCCCCCCCCCCCS(=O)(=O)N(C)CC[N+](CC)(CC)CC", "growth, % of control at 0.1 µM, %": 95.3}
{"compoundString": "CCCCCCCCCCCCCCS(=O)(=O)NCC(C)(C)C[N+](C)(C)C", "growth, % of control at 0.1 µM, %": 98.1}
{"compoundString": "CCCCCCCCCCCCCCS(=O)(=O)NCCC[N+](C)(C)CC", "growth, % of control at 0.1 µM, %": 97}
{"compoundString": "CCCCCCCCCCCCCCCCS(=O)(=O)N(C)CC[N+](C)(C)C", "growth, % of control at 0.1 µM, %": 95.7}
{"compoundString": "CCCCCCCCCCCCCCS(=O)(=O)NCCC[N+](C)(C)C", "growth, % of control at 0.1 µM, %": 94.3}
{"compoundString": "CCCCCCCCCCCCCCCCS(=O)(=O)NCC(C)(C)C[N+](C)(C)C", "growth, % of control at 0.1 µM, %": 136}
{"compoundString": "CCCCCCCCCCCCCCCCS(=O)(=O)N(C)CC[N+](C)(C)CC", "growth, % of control at 0.1 µM, %": 101}
{"compoundString": "CCCCCCCCCCCCCCCCS(=O)(=O)N(C)CCC[N+](C)(C)C", "growth, % of control at 0.1 µM, %": 100}
{"compoundString": "CCCCCCCCCCCCCCS(=O)(=O)N(C)CC[N+](C)(C)C", "growth, % of control at 0.1 µM, %": 95.7}
{"compoundString": "C=CC[N+](CC)(CC)CCN(C)S(=O)(=O)CCCCCCCCCCCCCCCC", "growth, % of control at 0.1 µM, %": 87.9}
{"compoundString": "CCCCCCCCCCCCCCS(=O)(=O)N(C)CCC[N+](C)(C)CC", "growth, % of control at 0.1 µM, %": 106}
{"compoundString": "CCCCCCCCCCCCCCS(=O)(=O)NCC(C)(C)C[N+](C)(C)CC", "growth, % of control at 0.1 µM, %": 112}
{"compoundString": "CCCCCCCCCCCCCCS(=O)(=O)N(C)CC[N+](C)(C)CC", "growth, % of control at 0.1 µM, %": 98.2}
{"compoundString": "C=CC[N+](C)(C)CCN(C)S(=O)(=O)CCCCCCCCCCCCCC", "growth, % of control at 0.1 µM, %": 90.5}
{"compoundString": "C=CC[N+](CC)(CC)CCN(C)S(=O)(=O)CCCCCCCCCCCCCC", "growth, % of control at 0.1 µM, %": 91.8}
{"compoundString": "CCCCCCCCCCCCCCS(=O)(=O)N(C)CCC[N+](C)(C)C", "growth, % of control at 0.1 µM, %": 92.4}
{"compoundString": "C=CC[N+](C)(C)CCN(C)S(=O)(=O)CCCCCCCCCCCCCCCC", "growth, % of control at 0.1 µM, %": 100}
{"compoundString": "CCCCCCCCCCCCCCCCS(=O)(=O)N(C)CC[N+](CC)(CC)CC", "growth, % of control at 0.1 µM, %": 83}
{"compoundString": "CCCCCCCCCCCCCCCCS(=O)(=O)NCC(C)(C)C[N+](C)(C)CC", "growth, % of control at 0.1 µM, %": 141}
